Reported IC50 values for the following compounds.
biological target: wt human LRRK2, catalytic site (Homo sapiens (Human), UniProt Q5S007); assay: TR-FRET LanthaScreen Tb Kinase Activity Assay (LRRK2 kinase inhibition); settings: 2 nM wt human LRRK2, 400 nM fluorescein-ERM (LRRKtide) peptide, 38 μM ATP, 120 minutes at room temperature
Sequence (Q5S007 1879-2138): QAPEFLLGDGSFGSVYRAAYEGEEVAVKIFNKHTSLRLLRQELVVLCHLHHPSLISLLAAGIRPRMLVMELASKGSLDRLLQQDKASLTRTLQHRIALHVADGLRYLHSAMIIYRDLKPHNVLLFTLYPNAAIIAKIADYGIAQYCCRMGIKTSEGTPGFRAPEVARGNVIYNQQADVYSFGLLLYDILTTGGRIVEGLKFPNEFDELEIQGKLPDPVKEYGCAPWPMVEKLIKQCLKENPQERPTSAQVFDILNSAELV
metric: IC50

>>> observed_measurement("CNc1nc(Nc2cccc3c2cnn3S(=O)(=O)C2CC2)ncc1C(F)(F)F [Example 33]")
"< 50 nM"
>>> observed_measurement("CNc1nc(Nc2cccc3[nH]ncc23)ncc1C(F)(F)F [Example 21]")
"< 50 nM"
>>> observed_measurement("COCCn1ncc2c(Nc3ncc(C(F)(F)F)c(NC4CC4)n3)cccc21 [Example 133]")
"< 50 nM"
>>> observed_measurement("CC(C)Nc1nc(Nc2cccc3c2cnn3C(C)(C)C#N)ncc1C(F)(F)F [Example 108]")
"< 50 nM"
>>> observed_measurement("CC(C)(C#N)n1ncc2c(Nc3ncc(C(F)(F)F)c(NC4CC4)n3)ccnc21 [Example 189]")
"< 50 nM"
>>> observed_measurement("CNc1nc(Nc2ccc(OC)c3[nH]ncc23)ncc1C(F)(F)F [Example 28]")
"< 50 nM"
>>> observed_measurement("CNc1nc(Nc2ccc(OC)c3c2cnn3C)ncc1C(F)(F)F [Example 47]")
"< 50 nM"
>>> observed_measurement("O=S(=O)(C1CC1)n1ncc2c(Nc3ncc(C(F)(F)F)c(NC4CC4)n3)ccnc21 [Example 159]")
"< 50 nM"
>>> observed_measurement("CNc1nc(Nc2ccc3c4c2cnn4CCO3)ncc1C(F)(F)F [Example 178]")
"< 50 nM"
>>> observed_measurement("CNc1nc(Nc2cccc3nn(C)cc23)ncc1C(F)(F)F [Example 34]")
"< 50 nM"
>>> observed_measurement("CNc1nc(Nc2cc(C#N)cc3c2cnn3C)ncc1C(F)(F)F [Example 44]")
"< 50 nM"
>>> observed_measurement("CNc1nc(Nc2ccc(C3=CCOCC3)c3c2cnn3C)ncc1C(F)(F)F [Example 86]")
"< 50 nM"
>>> observed_measurement("FC(F)(F)c1cnc(Nc2cccc3c2cnn3CC2COC2)nc1NC1CC1 [Example 197]")
"50 to 200 nM"
>>> observed_measurement("CCNc1nc(Nc2ccc(F)c3c2cnn3CC(C)(C)O)nc2[nH]nc(Cl)c12 [Example 181]")
"< 50 nM"
>>> observed_measurement("CNc1nc(Nc2ccc(C3=CCN(C)CC3)c3c2cnn3CC#N)ncc1C(F)(F)F [Example 87]")
"< 50 nM"
>>> observed_measurement("CC(C)(C#N)n1ncc2c(Nc3ncc(C(F)(F)F)c(NC4CCC4)n3)cccc21 [Example 113]")
"< 50 nM"
>>> observed_measurement("CS(=O)(=O)CCn1ncc2c(Nc3ncc(C(F)(F)F)c(NC4CCC4)n3)cccc21 [Example 163]")
"< 50 nM"
>>> observed_measurement("O=S(=O)(C1CC1)n1ncc2c(Nc3ncc(C(F)(F)F)c(C4CC4)n3)cccc21 [Example 132]")
"50 to 200 nM"

###

molecular target: wt human LRRK2, catalytic site (Homo sapiens (Human), UniProt Q5S007); assay: TR-FRET LanthaScreen Tb Kinase Activity Assay (LRRK2 kinase inhibition); conditions: 2 nM wt human LRRK2, 400 nM fluorescein-ERM (LRRKtide) peptide, 38 μM ATP, 120 minutes at room temperature
pIC50: −log10 of the molar value.
metric: pIC50

>>> observed_measurement("CNc1nc(Nc2c(C)ccc3[nH]ncc23)ncc1C(F)(F)F")
"6.70 to 7.30"
>>> observed_measurement("FC(F)(F)c1cnc(Nc2ccc3c4c2cnn4CCCO3)nc1NC1CC1")
"> 7.30"
>>> observed_measurement("Cn1ncc2c(Nc3ncc(C(F)(F)F)c(NC4CC4)n3)cccc21")
"> 7.30"
>>> observed_measurement("CNc1nc(Nc2cc(C(C)C)cc3c2cnn3C)ncc1C(F)(F)F")
"> 7.30"
>>> observed_measurement("N#CCn1ncc2c(Nc3ncc(C(F)(F)F)c(NC4CCCC4)n3)cccc21")
"> 7.30"
>>> observed_measurement("O=S(=O)(CCn1ncc2c(Nc3ncc(C(F)(F)F)c(NC4CC4)n3)cccc21)C1CC1")
"> 7.30"
>>> observed_measurement("CNc1nc(Nc2c(C)ccc3nn(C)cc23)ncc1C(F)(F)F")
"≤ 6.70"
>>> observed_measurement("CNc1nc(Nc2ccc(CC#N)c3c2cnn3C)ncc1C(F)(F)F")
"> 7.30"
>>> observed_measurement("CNc1nc(Nc2cn(C)c3ncncc23)ncc1C(F)(F)F")
"> 7.30"

###

molecular target: wt human LRRK2, catalytic site (Homo sapiens (Human), UniProt Q5S007); experiment: TR-FRET LanthaScreen Tb Kinase Activity Assay (LRRK2 kinase inhibition); details: 2 nM wt human LRRK2, 400 nM fluorescein-ERM (LRRKtide) peptide, 38 μM ATP, 120 minutes at room temperature
pIC50: −log10 of the molar value.
metric: pIC50

>>> observed_measurement("CNc1nc(Nc2cccc3[nH]nc(C)c23)ncc1C(F)(F)F")
"6.70 to 7.30"
>>> observed_measurement("CNc1nc(Nc2cc(Cl)cc3c2cnn3CC#N)ncc1C(F)(F)F")
"> 7.30"
>>> observed_measurement("CC(C)(O)Cn1ncc2c(Nc3ncc(C(F)F)c(NC4CC4)n3)cccc21")
"> 7.30"
>>> observed_measurement("CCn1ncc2c(Nc3ncc(C(F)(F)F)c(NC4CC4)n3)cccc21")
"> 7.30"
>>> observed_measurement("CNc1nc(Nc2c(C)nn3c(C#N)cccc23)ncc1C(F)(F)F")
"≤ 6.70"
>>> observed_measurement("CS(=O)(=O)CCn1ncc2c(Nc3nc(NC4CC4)c4c(Cl)c[nH]c4n3)cccc21")
"> 7.30"
>>> observed_measurement("CNc1nc(Nc2cc3[nH]ncc3cc2OC)ncc1C(F)(F)F")
"> 7.30"
>>> observed_measurement("CNc1nc(Nc2cccc3c2cnn3C(=O)N2CCOCC2)ncc1C(F)(F)F")
"> 7.30"
>>> observed_measurement("CNc1cc(Nc2nn(C)c3ncncc23)ncc1C(F)(F)F")
"6.70 to 7.30"
>>> observed_measurement("CC(C)(C#N)n1ncc2c(Nc3ncc(C(F)(F)F)c(NC4CC(O)C4)n3)cccc21 (stereo not drawn)")
"> 7.30"
>>> observed_measurement("CNc1nc(Nc2c(OC)ccc3nn(C)cc23)ncc1C(F)(F)F")
"≤ 6.70"
>>> observed_measurement("CC(C)(CS(C)(=O)=O)n1ncc2c(Nc3ncc(C(F)(F)F)c(NC4CC4)n3)cccc21")
"> 7.30"
>>> observed_measurement("CC(C)S(=O)(=O)CCn1ncc2c(Nc3ncc(C(F)(F)F)c(NC4CC4)n3)cccc21")
"> 7.30"
>>> observed_measurement("CC(C)(O)Cn1ncc2c(Nc3ncc(C(F)(F)F)c(NC4CC4)n3)cccc21")
"> 7.30"
>>> observed_measurement("CNc1nc(Nc2cccc3nccn23)ncc1C(F)(F)F")
"≤ 6.70"
>>> observed_measurement("CNc1nc(Nc2ccc3c(Br)n[nH]c3c2)ncc1C(F)(F)F")
"> 7.30"
>>> observed_measurement("CNc1nc(Nc2cnn3ccccc23)ncc1C(F)(F)F")
"> 7.30"
>>> observed_measurement("CC(C)(C#N)Cn1ncc2c(Nc3ncc(C(F)(F)F)c(NC4CC4)n3)cccc21")
"> 7.30"

###

target: wt human LRRK2, catalytic site (Homo sapiens (Human)); assay: TR-FRET LanthaScreen Tb Kinase Activity Assay (LRRK2 kinase inhibition); conditions: 2 nM wt human LRRK2, 400 nM fluorescein-ERM (LRRKtide) peptide, 38 μM ATP, 120 minutes at room temperature
Reported IC50 values for the following compounds.
metric: IC50

>>> observed_measurement("CNc1nc(Nc2c(F)ccc3[nH]ncc23)ncc1C(F)(F)F [Example 22]")
"50 to 200 nM"
>>> observed_measurement("CNc1nc(Nc2ccc(C3=CCN(C)CC3)c3c2cnn3CC(N)=O)ncc1C(F)(F)F [Example 100]")
"< 50 nM"
>>> observed_measurement("CCNc1nc(Nc2cccc3c2cnn3CC(F)F)nc2[nH]nc(C)c12 [Example 185]")
"< 50 nM"
>>> observed_measurement("CNc1nc(Nc2ccc3cn[nH]c3c2OC)ncc1C(F)(F)F [Example 4]")
"50 to 200 nM"
>>> observed_measurement("CNc1nc(Nc2cccc3c2cnn3CC#N)ncc1C(F)(F)F [Example 30]")
"< 50 nM"
>>> observed_measurement("C=Cc1cc2cn[nH]c2cc1Nc1ncc(C(F)(F)F)c(NC)n1 [Example 120]")
"50 to 200 nM"
>>> observed_measurement("CNc1nc(Nc2cccc3c2cnn3CC(C)(C)O)ncc1C(F)(F)F [Example 97]")
"< 50 nM"
>>> observed_measurement("COCCn1ncc2c(Nc3ncc(C(F)(F)F)c(NC(C)C)n3)cccc21 [Example 140]")
"< 50 nM"
>>> observed_measurement("CNc1nc(Nc2cccn3cncc23)ncc1C(F)(F)F [Example 130]")
"< 50 nM"
>>> observed_measurement("CCNc1nc(Nc2cccc3c2cnn3CC(C)(C)O)nc2[nH]cc(Cl)c12 [Example 176]")
"< 50 nM"
>>> observed_measurement("CNc1nc(Nc2cc(/C=C/C(=O)N3CCOCC3)cc3[nH]ncc23)ncc1C(F)(F)F [Example 52]")
"< 50 nM"
>>> observed_measurement("CNc1nc(Nc2ccc(CCC(=O)N3CCOCC3)c3c2cnn3C)ncc1C(F)(F)F [Example 58]")
"< 50 nM"
>>> observed_measurement("CNc1nc(Nc2c(F)ccc3nn(C)cc23)ncc1C(F)(F)F [Example 41]")
"≥ 200 nM"
>>> observed_measurement("CNc1nc(Nc2cccc3c2cnn3C)ncc1C(F)(F)F [Example 29]")
"< 50 nM"
>>> observed_measurement("CS(=O)(=O)CCn1ncc2c(Nc3ncc(C(F)(F)F)c(NCC4CC4)n3)cccc21 [Example 187]")
"< 50 nM"
>>> observed_measurement("FC(F)Cn1ncc2c(Nc3ncc(C(F)(F)F)c(NC4CC4)n3)cccc21 [Example 134]")
"< 50 nM"
>>> observed_measurement("CNc1nc(Nc2cc(F)c3cn[nH]c3c2)ncc1C(F)(F)F [Example 6]")
"< 50 nM"
>>> observed_measurement("CCNc1nc(Nc2ccc(F)c3c2cnn3CC(C)(C)O)nc2[nH]nc(C)c12 [Example 205]")
"< 50 nM"
>>> observed_measurement("CN(C)c1nc(Nc2cccc3c2cnn3CC#N)ncc1C(F)(F)F [Example 107]")
"< 50 nM"
>>> observed_measurement("CNc1nc(Nc2cc3[nH]ncc3cc2C)ncc1C(F)(F)F [Example 2]")
"< 50 nM"
>>> observed_measurement("CNc1nc(Nc2ccc(C(C)CC(=O)N3CCOCC3)c3c2cnn3C)ncc1C(F)(F)F (stereo not drawn) [Example 60]")
"< 50 nM"
>>> observed_measurement("CNc1nc(Nc2cccc3cn[nH]c23)ncc1C(F)(F)F [Example 75]")
"50 to 200 nM"
>>> observed_measurement("O=S(=O)(C1CC1)n1ncc2c(Nc3ncc(C(F)(F)F)c(NC4CC4)n3)ccc(F)c21 [Example 153]")
"< 50 nM"
>>> observed_measurement("C[C@@]1(n2ncc3c(Nc4ncc(C(F)(F)F)c(NC5CC5)n4)cccc32)CCOC1=O [Example 166]")
"< 50 nM"
>>> observed_measurement("CC(C)S(=O)(=O)n1ncc2c(Nc3ncc(C(F)(F)F)c(NC4CC4)n3)cccc21 [Example 135]")
"< 50 nM"
>>> observed_measurement("CNc1nc(Nc2c(C)[nH]c3ccccc23)ncc1C(F)(F)F [Example 63]")
"50 to 200 nM"
>>> observed_measurement("CNc1nc(Nc2cc3[nH]ncc3cc2OC(F)(F)F)ncc1C(F)(F)F [Example 129]")
"< 50 nM"
>>> observed_measurement("CNc1nc(Nc2cc(F)cc3c2cnn3C)ncc1C(F)(F)F [Example 42]")
"< 50 nM"
>>> observed_measurement("CC1(Nc2nc(Nc3cccc4c3cnn4CCS(C)(=O)=O)ncc2C(F)(F)F)CC1 [Example 191]")
"< 50 nM"
>>> observed_measurement("N#CCn1ncc2c(Nc3ncc(C(F)(F)F)c(NCC4CC4)n3)cccc21 [Example 104]")
"< 50 nM"
>>> observed_measurement("CCOc1nc(Nc2cccc3c2cnn3C(C)(C)C#N)nc2[nH]cc(Cl)c12 [Example 162]")
"< 50 nM"
>>> observed_measurement("CCn1ncc2c(Nc3ncc(C(F)(F)F)c(NC)n3)cccc21 [Example 98]")
"< 50 nM"
>>> observed_measurement("CNc1nc(Nc2ccc(C)c3[nH]ncc23)ncc1C(F)(F)F [Example 26]")
"< 50 nM"
>>> observed_measurement("O=S(=O)(C1CC1)n1ncc2c(Nc3ncc(C(F)(F)F)c(NC4CC4)n3)cccc21 [Example 78]")
"< 50 nM"
>>> observed_measurement("CNc1nc(Nc2cccc3c2cnn3CC(C)(C)O)nc2[nH]nc(Cl)c12 [Example 183]")
"< 50 nM"
>>> observed_measurement("CS(=O)(=O)CCn1ncc2c(Nc3ncc(C(F)(F)F)c(N[C@H]4C[C@@H]4F)n3)cccc21 [Example 199]")
"< 50 nM"
